Tested on: 648629-189-R-J1-PDC spheroids with HUVEC/MSC, viability
Assay: Anticancer human tumor 648629-189-R-J1-PDC patient-derived bladder carcinoma cell line growth inhibition [PI3K]
Details: second compound 0.00316 µM; first compound 0.01 µM; hits give low values
From the text: Combinatorial screen of targeted agents with the PI3K inhibitors inavolisib, alpelisib, duvelisib, and copanlisib in multi-cell type tumor spheroids A high-throughput screen of multi-cell type tumor spheroids was designed to identify active combinations of targeted small molecules and PI3K pathway inhibitors. […] Compounds. […] If the clinical Cmax for an agent had not been determined, the highest concentration tested was 10 microM. […]
Would you kindly list viability, T/C for each of these compounds?
Give bare numbers, in %.

These recorded examples may help you get a feel for the data.
[[record]]
compound = "CCN1CCN(Cc2ccc(Nc3ncc(F)c(-c4cc(F)c5nc(C)n(C(C)C)c5c4)n3)nc2)CC1 + COc1c(OCCCN2CCOCC2)ccc2c3n(c(=NC(=O)c4cnc(N)nc4)nc12)CCN3"
result_number = 94.8

[[record]]
compound = "CC(C)n1nc(-c2ccc3oc(N)nc3c2)c2c(N)ncnc21 + COc1c(OCCCN2CCOCC2)ccc2c3n(c(=NC(=O)c4cnc(N)nc4)nc12)CCN3"
result_number = 77.8


The record that follows has no viability, T/C shown yet.
Item Cn1ncnc1[C@H]1c2n[nH]c(=O)c3cc(F)cc(c23)N[C@@H]1c1ccc(F)cc1 + CC(Nc1ccc2c(c1)OCCn1cc(N3C(=O)OCC3C(F)F)nc1-2)C(N)=O has what recorded viability, T/C? 83.5

----------
Tested on: 648629-189-R-J1-PDC spheroids with HUVEC/MSC, viability
Assay: Anticancer human tumor 648629-189-R-J1-PDC cell line growth inhibition [PI3K];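 note: spheroids exposed to agents for seven days before reading; percent of vehicle control luminescence where 100% = DMSO treated spheroids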
Details: second compound 0.1 µM; first compound 0.0316 µM; hits give low values
Description: Combinatorial screen of targeted agents with the PI3K inhibitors inavolisib, alpelisib, duvelisib, and copanlisib in multi-cell type tumor spheroids A high-throughput screen of multi-cell type tumor spheroids was designed to identify active combinations of targeted small molecules and PI3K pathway inhibitors. […] Compounds. […] If the clinical Cmax for an agent had not been determined, the highest concentration tested was 10 microM. […]
Binarize viability, T/C at 90%; below is class 1, at or above is class 0.

Please review the entries below; each comes with its answer.
[[record]]
compound = "CCN1CCN(Cc2ccc(Nc3ncc(F)c(-c4cc(F)c5nc(C)n(C(C)C)c5c4)n3)nc2)CC1 + COc1c(OCCCN2CCOCC2)ccc2c3n(c(=NC(=O)c4cnc(N)nc4)nc12)CCN3"
test_system = "648629-189-R-J1-PDC spheroids with HUVEC/MSC, viability"
class_name = "class 1"

[[record]]
compound = "CCCS(=O)(=O)Nc1ccc(F)c(C(=O)c2c[nH]c3ncc(-c4ccc(Cl)cc4)cc23)c1F + CC(Nc1ccc2c(c1)OCCn1cc(N3C(=O)OCC3C(F)F)nc1-2)C(N)=O"
test_system = "648629-189-R-J1-PDC spheroids with HUVEC/MSC, viability"
class_name = "class 0"

[[record]]
compound = "C[C@@H](NC(=O)c1ncnc(N)c1Cl)c1ncc(C(=O)Nc2cc(C(F)(F)F)c(Cl)cn2)s1 + CC(Nc1ncnc2nc[nH]c12)c1cc2cccc(Cl)c2c(=O)n1-c1ccccc1"
test_system = "648629-189-R-J1-PDC spheroids with HUVEC/MSC, viability"
class_name = "class 0"


# input for lookup
Just wondering, is viability, T/C of CCN1CCN(Cc2ccc(Nc3ncc(F)c(-c4cc(F)c5nc(C)n(C(C)C)c5c4)n3)nc2)CC1 + CC(Nc1ncnc2nc[nH]c12)c1cc2cccc(Cl)c2c(=O)n1-c1ccccc1 below 90%? class 0
